- procedure.details: Kinetic solubility in FaSSIF at pH 6.5 after 2 hours at 25 degC by shake flask method
- Type: physicochemical
- settings: read-out: Kinetic_solubility
endpoint.name: solubility kinetic at 2 h

// known answers, use as guide
Cc1noc(-c2nc(C)c3c(c2N)C(=O)N(Cc2ccc(Oc4ccc(F)cc4)cc2)C3=O)n1    23.8 µM
Cc1noc(-c2nc(C)c3c(c2N)C(=O)N(Cc2cccc(Cl)c2)C3=O)n1    72 µM
CCOC(=O)c1nc(C)c2c(c1N)C(=O)N(Cc1ccccc1)C2=O    < 5 µM
Cc1nc(C#N)c(N)c2c1C(=O)N(Cc1ccccc1)C2=O    < 5 µM
Cc1noc(-c2nc(C)c3c(c2N)C(=O)N(Cc2ccccc2)C3=O)n1    < 5 µM
Cc1noc(-c2nc(C)c3c(c2N)C(=O)N(Cc2ccc(C#N)cc2)C3=O)n1    < 5 µM

Provide solubility kinetic at 2 h for all items below, preserving their order.
1. COC(=O)c1nc(C)c2c(c1N)C(=O)N(Cc1ccccc1)C2=O
2. Cc1noc(-c2nc(C)c3c(c2N)C(=O)N(Cc2cccc(F)c2)C3=O)n1
3. Cc1noc(-c2nc(C)c3c(c2N)C(=O)N(Cc2ccc(OC(F)F)cc2)C3=O)n1
4. Cc1noc(-c2nc(C)c3c(c2N)C(=O)N(Cc2ccc(N4CCCC4=O)cc2)C3=O)n1

1: 7.4 µM; 2: < 5 µM; 3: < 5 µM; 4: < 5 µM

* * *

- procedure.details: Tmax in C57/BL6 mouse at 20 mg/kg, po by LC-MS method
- Type: ADME, organism-based
- settings: in vivo
endpoint.name: Tmax
Please report the result as a number followed by the unit.

Give the reported Tmax for this molecule. Cc1noc(-c2nc(C)c3c(c2N)C(=O)N(Cc2cccc(Cl)c2)C3=O)n1
1 h

* * *

Record form. Attribute: solubility kinetic at 2 h. Fill in for each entry.
- procedure.details: Kinetic solubility in FaSSIF at pH 6.5 after 2 hours at 25 degC by shake flask method
- Type: physicochemical
- settings: read-out: Kinetic_solubility

// known answers, use as guide
CCOC(=O)c1nc(C)c2c(c1N)C(=O)N(c1ccccc1)C2=O    5 µM
COc1cccc(CN2C(=O)c3c(C)nc(-c4nc(C)no4)c(N)c3C2=O)c1    < 5 µM
Cc1noc(-c2nc(C)c3c(c2N)C(=O)N(Cc2cccc(C(F)(F)F)c2)C3=O)n1    < 5 µM
Cc1noc(-c2nc(C)c3c(c2N)C(=O)N(Cc2ccc(-n4cccn4)cc2)C3=O)n1    < 5 µM
Cc1noc(-c2nc(C)c3c(c2N)C(=O)N(Cc2cccc(OC(F)(F)F)c2)C3=O)n1    6.3 µM

Provide solubility kinetic at 2 h for all items below, preserving their order.
1. Cc1nc(C(=O)O)c(N)c2c1C(=O)N(Cc1ccccc1)C2=O
2. Cc1noc(-c2nc(C)c3c(c2N)C(=O)N(Cc2ccc(C(F)(F)F)cc2)C3=O)n1
3. Cc1noc(-c2nc(C)c3c(c2N)C(=O)N(Cc2ccc(Cl)cc2)C3=O)n1
4. Cc1noc(-c2nc(C)c3c(c2N)C(=O)N(Cc2ccc(C(N)=O)cc2)C3=O)n1
5. Cc1noc(-c2nc(C)c3c(c2N)C(=O)N(Cc2ccc(-c4ccncc4)cc2)C3=O)n1
6. COC(=O)c1nc(C)c2c(c1N)C(O)N(Cc1ccccc1)C2=O (configuration not stated)
7. Cc1nc(C(N)=O)c(N)c2c1C(=O)N(Cc1ccccc1)C2=O

177 µM
< 5 µM
< 5 µM
< 5 µM
< 5 µM
200 µM
< 5 µM
